test.protocol: inhibitors of enzymatic SUMO conjugation, SAR follow-up, biochemical, AlphaScreen (AID 485374)
condition.label: AlphaScreen biochemical SUMOylation assay
The source made the active and inactive calls. How the calls were made is not given here.
Outcome codes: label 1 = active, label 0 = inactive

>  <compound>
N#Cc1c(NC(=O)c2ccccc2Cl)n(Cc2ccccc2)c2nc3ccccc3nc12

>  <assigned.category>
label 1

$$$$
>  <compound>
CCCCn1c(NC(=O)CC)c(S(=O)(=O)c2ccc(C)cc2)c2nc3ccccc3nc21

>  <assigned.category>
label 1

$$$$
>  <compound>
COC(=O)C=C(NC(CO)(CO)CO)C(=O)OC

>  <assigned.category>
label 0

$$$$
>  <compound>
COC(=O)C1=C(C(=O)OC)C2([C@@H](Cc3ccccc3)Nc3ccc(Cl)cc3)C=CC1O2 (some centres undefined)

>  <assigned.category>
label 1

$$$$
>  <compound>
Cc1cc(C)c2c(c1)C(=O)C(=O)N2CCN1CCOCC1

>  <assigned.category>
label 0

$$$$
>  <compound>
COc1cc(/C=C2\C(=O)N(c3ccccc3)N=C2C)ccc1OCc1ccccc1

>  <assigned.category>
label 0

$$$$
>  <compound>
CCCCn1c(NC(=O)c2ccco2)c(S(=O)(=O)c2ccc(C)cc2)c2nc3ccccc3nc21

>  <assigned.category>
label 1

$$$$
>  <compound>
CCCCn1c(NC(=O)c2cccc(Cl)c2)c(C#N)c2nc3ccccc3nc21

>  <assigned.category>
label 1

$$$$
>  <compound>
CCCCn1c(N)c(S(=O)(=O)c2ccc(C)cc2)c2nc3ccccc3nc21

>  <assigned.category>
label 0

$$$$
>  <compound>
CCCCNC(=O)c1c(NC(=O)c2ccccc2)n(Cc2ccccc2)c2nc3ccccc3nc12

>  <assigned.category>
label 1

$$$$
>  <compound>
S=c1[nH]nc(-c2cc(-c3ccccc3)n[nH]2)n1N=Cc1ccc(Br)s1

>  <assigned.category>
label 1

$$$$
>  <compound>
COc1ccc2c(c1)C(NC(C)=O)C(=O)N2CCOc1ccccc1 (centres undefined)

>  <assigned.category>
label 1

$$$$
>  <compound>
CCCCn1c(NC(=O)c2ccccc2Cl)c(S(=O)(=O)c2ccccc2)c2nc3ccccc3nc21

>  <assigned.category>
label 1

$$$$
>  <compound>
CCCN1C(=O)C(NC(C)=O)c2cc(OC)ccc21 (centres undefined)

>  <assigned.category>
label 0

$$$$

----------
pIC50: recorded values
test.protocol: inhibitors of enzymatic SUMO conjugation, SAR follow-up, biochemical, AlphaScreen (AID 485374)
condition.label: AlphaScreen biochemical SUMOylation assay
pIC50: −log10 of the molar value.

>  <compound>
COC(=O)C1=C(C(=O)OC)C2([C@H](Cc3ccccc3)Nc3ccc(Cl)cc3)C=CC1O2 (stereo not given in full)

>  <pIC50>
5.59

$$$$
>  <compound>
COC(=O)C1=C(C(=O)OC)C2(C(Cc3ccc(F)cc3)Nc3ccccc3)C=CC1O2 (stereo not given)

>  <pIC50>
6.28

$$$$
>  <compound>
C=CC[C@H](Nc1ccc(Cl)cc1)C12C=CC(O1)C(C(=O)OC)=C2C(=O)OC (stereo not given in full)

>  <pIC50>
5.38

$$$$
>  <compound>
COc1cc(/C=C2\C(=O)N(c3ccccc3)N=C2C)ccc1OC(=O)c1cccs1

>  <pIC50>
4.80

$$$$
>  <compound>
C=CC[C@H](Nc1ccccc1)C12C=CC(O1)C(C(=O)OC)=C2C(=O)OC (stereo not given in full)

>  <pIC50>
5.23

$$$$

----------
test.protocol: inhibitors of enzymatic SUMO conjugation, SAR follow-up, biochemical, AlphaScreen (AID 485374)
condition.label: AlphaScreen biochemical SUMOylation assay
Calls of active or inactive are those of the source. No rule for the calls is given here.
Outcomes: TRUE = active, FALSE = inactive

>  <molecule>
COc1ccc2c(c1)C(=O)C(=O)N2CCN1CCOCC1

>  <assigned.category>
TRUE

$$$$
>  <molecule>
CCCCn1c(NC(=O)c2ccc(Cl)cc2)c(C#N)c2nc3ccccc3nc21

>  <assigned.category>
TRUE

$$$$
>  <molecule>
COc1ccc2c(c1)C(NC(C)=O)C(=O)N2CC1COc2ccccc2O1 (stereo unspecified)

>  <assigned.category>
TRUE

$$$$
>  <molecule>
COC(=O)C1=C(C(=O)OC)C2([C@@H](C)Nc3ccc(Cl)cc3)C=CC1O2 (stereo partly specified)

>  <assigned.category>
TRUE

$$$$
>  <molecule>
CCCCn1c(NC(C)=O)c(C#N)c2nc3ccccc3nc21

>  <assigned.category>
TRUE

$$$$
>  <molecule>
COc1ccc(CN2C(=O)C(NC(C)=O)c3ccccc32)cc1 (stereo unspecified)

>  <assigned.category>
FALSE

$$$$

----------
test.protocol: inhibitors of enzymatic SUMO conjugation, SAR follow-up, biochemical, AlphaScreen (AID 485374)
condition.label: AlphaScreen biochemical SUMOylation assay
Active and inactive are the calls of the source. No rule for the calls is given here.
Outcome codes: true (1) for active, false (0) for inactive

>  <molecule>
COC(=O)C1=C(C(=O)OC)C2([C@@H](C)Nc3ccccc3)C=CC1O2 (stereo not given in full)

>  <assigned.category>
true (1)

$$$$
>  <molecule>
COC(=O)C1=C(C(=O)OC)C2([C@@H](Cc3ccccc3)Nc3ccc(OC)cc3)C=CC1O2 (stereo not given in full)

>  <assigned.category>
true (1)

$$$$
>  <molecule>
COC(=O)C1=C(C(=O)OC)C2([C@H](Cc3ccccc3)Nc3ccc(OC)cc3)C=CC1O2 (stereo not given in full)

>  <assigned.category>
true (1)

$$$$
>  <molecule>
C=CC[C@H](Nc1ccc(C)cc1)C12C=CC(O1)C(C(=O)OC)=C2C(=O)OC (stereo not given in full)

>  <assigned.category>
true (1)

$$$$
>  <molecule>
C=CCC(c1ccco1)N(Cc1ccccc1)/C(=C/C(=O)OC)C(=O)OC (stereo not given)

>  <assigned.category>
false (0)

$$$$
>  <molecule>
CCC[C@@H](Nc1ccccc1)C12C=CC(O1)C(C(=O)OC)=C2C(=O)OC (stereo not given in full)

>  <assigned.category>
true (1)

$$$$
>  <molecule>
C=CC[C@@H](Nc1ccc(C)cc1)C12C=CC(O1)C(C(=O)OC)=C2C(=O)OC (stereo not given in full)

>  <assigned.category>
true (1)

$$$$
>  <molecule>
COC(=O)C1=C(C(=O)OC)C2([C@H](Cc3ccccc3)Nc3ccc(C)cc3)C=CC1O2 (stereo not given in full)

>  <assigned.category>
true (1)

$$$$
>  <molecule>
CCCCn1c(NC(=O)c2ccccc2Cl)c(C#N)c2nc3ccccc3nc21

>  <assigned.category>
true (1)

$$$$
>  <molecule>
COc1ccc2c(c1)C(NC(C)=O)C(=O)N2CCc1ccccc1 (stereo not given)

>  <assigned.category>
false (0)

$$$$
>  <molecule>
c1ccc(CC(Nc2ccccc2)c2ccco2)cc1 (stereo not given)

>  <assigned.category>
false (0)

$$$$
>  <molecule>
C=C[C@@H](Nc1ccccc1)C12C=CC(O1)C(C(=O)OC)=C2C(=O)OC (stereo not given in full)

>  <assigned.category>
true (1)

$$$$
>  <molecule>
CCCCn1c(NC(=O)c2ccc(OC)cc2)c(S(=O)(=O)c2ccc(C)cc2)c2nc3ccccc3nc21

>  <assigned.category>
true (1)

$$$$
>  <molecule>
CCCCn1c(NC(=O)c2ccco2)c(C#N)c2nc3ccccc3nc21

>  <assigned.category>
true (1)

$$$$
>  <molecule>
COC(=O)[C@@H]1C2CCC([C@@H](Cc3ccccc3)Nc3ccccc3)(O2)[C@@H]1C(=O)OC (stereo not given in full)

>  <assigned.category>
false (0)

$$$$
>  <molecule>
COC(=O)C1=C(C(=O)OC)C2([C@@H](Cc3ccccc3)Nc3ccccc3)C=CC1O2 (stereo not given in full)

>  <assigned.category>
true (1)

$$$$
>  <molecule>
C=CC[C@H](Nc1ccc(OC)cc1)C12C=CC(O1)C(C(=O)OC)=C2C(=O)OC (stereo not given in full)

>  <assigned.category>
true (1)

$$$$
>  <molecule>
C=CC[C@@H](Nc1ccc(OC)cc1)C12C=CC(O1)C(C(=O)OC)=C2C(=O)OC (stereo not given in full)

>  <assigned.category>
true (1)

$$$$
>  <molecule>
CCC[C@H](Nc1ccccc1)C12C=CC(O1)C(C(=O)OC)=C2C(=O)OC (stereo not given in full)

>  <assigned.category>
true (1)

$$$$
>  <molecule>
C=CC[C@@H](Nc1ccc(Cl)cc1)C12C=CC(O1)C(C(=O)OC)=C2C(=O)OC (stereo not given in full)

>  <assigned.category>
true (1)

$$$$

----------
test.protocol: inhibitors of enzymatic SUMO conjugation, SAR follow-up, biochemical, AlphaScreen (AID 485374)
condition.label: AlphaScreen biochemical SUMOylation assay
pIC50: −log10 of the molar value.
quantity: pIC50

>  <compound>
CCCCCn1c(NC(=O)c2ccco2)c(C(=O)OCC)c2nc3ccccc3nc21

>  <test.value>
5.31

$$$$
>  <compound>
COC(=O)C1=C(C(=O)O)C2C=CC1([C@@H](Cc1ccccc1)Nc1ccccc1)O2 (stereo partly drawn)

>  <test.value>
5.54

$$$$
>  <compound>
COC(=O)C1=C(C(=O)OC)C2([C@@H](Cc3ccc(C)cc3)Nc3ccccc3)C=CC1O2 (stereo partly drawn)

>  <test.value>
6.43

$$$$
>  <compound>
COC(=O)C1=C(C(=O)OC)C2([C@H](Cc3ccc(C)cc3)Nc3ccccc3)C=CC1O2 (stereo partly drawn)

>  <test.value>
5.66

$$$$
>  <compound>
C=CC[C@@H](Nc1ccccc1)C12C=CC(O1)C(C(=O)OC)=C2C(=O)OC (stereo partly drawn)

>  <test.value>
5.74

$$$$
>  <compound>
CCCCn1c(NC(=O)c2ccc(F)cc2)c(C#N)c2nc3ccccc3nc21

>  <test.value>
6.12

$$$$
>  <compound>
C=CCC(Nc1ccccc1)C12C=CC(O1)C(C(=O)OC)=C2C(=O)OC (stereo not drawn)

>  <test.value>
5.87

$$$$
>  <compound>
C=C[C@H](Nc1ccccc1)C12C=CC(O1)C(C(=O)OC)=C2C(=O)OC (stereo partly drawn)

>  <test.value>
4.98

$$$$
>  <compound>
COC(=O)C1=C(C(=O)OC)C2([C@H](Cc3ccccc3)Nc3ccccc3)C=CC1O2 (stereo partly drawn)

>  <test.value>
5.30

$$$$
>  <compound>
COC(=O)C1=C(C(=O)OC)C2([C@H](C)Nc3ccccc3)C=CC1O2 (stereo partly drawn)

>  <test.value>
4.62

$$$$
>  <compound>
CCCCn1c(N)c(C#N)c2nc3ccccc3nc21

>  <test.value>
4.88

$$$$
>  <compound>
Nc1c(C(=O)NCc2ccco2)c2nc3ccccc3nc2n1Cc1ccccc1

>  <test.value>
4.39

$$$$
>  <compound>
COCCn1c(NC(=O)c2ccc(Cl)cc2)c(S(=O)(=O)c2ccc(C)cc2)c2nc3ccccc3nc21

>  <test.value>
5.18

$$$$

These entries and their values trace back to PubChem BioAssay AID485374.
